B1: library; a variant is named by its letters at N, in order (parent)
chain: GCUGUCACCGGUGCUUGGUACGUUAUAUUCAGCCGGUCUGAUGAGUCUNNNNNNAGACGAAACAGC

Variants of: B1
Protocol description: FACS-Seq fitted mean relative fluorescence mCherry/BFP without ligand (log10 relative fluorescence); HEK293T overexpressing SLC46A1; higher = higher reporter protein expression
Condition info: without (6R,S)-folinic acid; ligand present: no
Assignment: determine reported FACS-Seq fitted mean (log10) for the given variants.

Report FACS-Seq fitted mean (log10), nothing else, for this variant: "UAGAGA"
0.273

Look up FACS-Seq fitted mean (log10) of "GACCCU" and report it.
0.102

Look up FACS-Seq fitted mean (log10) of "UAGGAA" and report it.
0.503

Dear colleague, please send me the reported FACS-Seq fitted mean (log10) for "UUGUAG" when you can.
0.271

Using the record for "CAAGUU" , state its measured FACS-Seq fitted mean (log10).
0.055

Indicate the recorded FACS-Seq fitted mean (log10) value for this variant: "GUGUGA"
0.383

Give the reported value of FACS-Seq fitted mean (log10) for this record: "GUACGG"
0.245

Retrieve FACS-Seq fitted mean (log10) measured for "UGGUAA" and print it.
0.244

Please report the measured FACS-Seq fitted mean (log10) for "CGCAUA"
0.387

Supply reported FACS-Seq fitted mean (log10) belonging to this variant: "GUGACA"
0.277

For the variant "CUUGGG" , give its measured FACS-Seq fitted mean (log10) value.
0.49

Annotate the variant "AACAGG" with its measured FACS-Seq fitted mean (log10).
0.475

Give the reported value of FACS-Seq fitted mean (log10) for this record: "AUAGCG"
0.172

Return value of FACS-Seq fitted mean (log10) for input "UACUUG" , no commentary.
0.275

Identify measured FACS-Seq fitted mean (log10) corresponding to "AAAUGA"
0.485

Supply recorded FACS-Seq fitted mean (log10) for "AAGGAU" here.
0.466

Entry "AGGCUA" needs its FACS-Seq fitted mean (log10) filled in; supply it.
0.506

Answer with reported FACS-Seq fitted mean (log10) of "UGGAGG"
0.042

Read off the recorded FACS-Seq fitted mean (log10) for "GAACAA"
0.694

Output measured FACS-Seq fitted mean (log10) for this item: "AUCGGA"
0.397

For the variant "GGUGAU" , report FACS-Seq fitted mean (log10).
0.294

Give the measured FACS-Seq fitted mean (log10) for "AAAAUU"
0.432

# return recorded FACS-Seq fitted mean (log10) for entry "UGAAGU"
0.167

Give FACS-Seq fitted mean (log10) for the following variant: "AUUGGA"
0.168

For the variant "UGAUGG" , give its reported FACS-Seq fitted mean (log10).
0.038

Give the reported value of FACS-Seq fitted mean (log10) for this record: "GGUGGA"
0.534

Tell us which FACS-Seq fitted mean (log10) value is on record for "GCUUAC"
0.583

Return reported FACS-Seq fitted mean (log10). Input variant: "GGGUCG"
0.531

Indicate its recorded FACS-Seq fitted mean (log10); the variant in question is "UUCAAA"
0.198

Give reported FACS-Seq fitted mean (log10) value for "GUAGUG"
0.359

Kindly indicate its recorded FACS-Seq fitted mean (log10). Item: "AAAAAU"
0.39
